The measurements presented in this section are drawn from the supplement of paper PMC6755084.

B1: F1*; the commonest letter at each place (parent)
chain: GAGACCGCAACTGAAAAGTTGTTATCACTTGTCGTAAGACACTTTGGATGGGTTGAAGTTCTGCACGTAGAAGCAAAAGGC

variants of: B1; experiment: fraction ligated after 30 min (ligated reads / total reads); higher = more ligase activity; conditions: with F1*sub RNA substrate (template-directed ligation), 42 °C
Hi there, I'd appreciate the recorded fraction ligated for every entry that follows.
Answer with a number only.

Record request: fraction ligated value, item GAGACCGCAACTGAAAAGTTGTTATCACTTGTCGTAAGACTCTTTGAATGGGTTGAAGTTCTGCACGTAGAAGCAAAAGGC [A41T G47A]
0.783

Try this variant too: GAGACCGCAACTGAAAAGTTGTTATCACCTGTCGTAAGACACGTTGGATGGGTTGAAGTTCTGCACGTAGAAGCAAAAGGC [T29C T43G]
0.815

How about this variant: GAGACCGCAACTGAAAAGTTGTTATCACTTCTCGTAGGACACTTTGGATGGGTTGAAGTTCTGCACGTAGAAGCAAAAGGC [G31C A37G]
0.817

Next variant up: GAGACCGCAACTGAAAAGTTGTTATCACTTGTCGTTAGACACGTTGGATGGGTTGAAGTTCTGCACGTAGAAGCAAAAGGC [A36T T43G]
0.812

Same thing, different variant: GAGACCGCAACTGAAAAGTTGTTATCATTTGTCCTAAGACACTTTGGATGGGTTGAAGTTCTGCACGTAGAAGCAAAAGGC [C28T G34C]
0.79

How about this variant: GAGACCGCAACTGAAAAGTTGTTATCACTTGTCCTAAGTCACTTTGGATGGGTTGAAGTTCTGCACGTAGAAGCAAAAGGC [G34C A39T]
0.781

Please do the same for GAGACCGCAACTGAAAAGTTGTTATCACTTGTCGTAAGATACTTTTGATGGGTTGAAGTTCTGCACGTAGAAGCAAAAGGC [C40T G46T] as well.
0.792

Would you mind doing GAGACCGCAACTGAAAAGTTGTTATCAGTTGTCGTAAGACACTTTCGATGGGTTGAAGTTCTGCACGTAGAAGCAAAAGGC [C28G G46C] as well?
0.792

Also GAGACCGCAACTGAAAAGTTGTTATCACTTGTCGTAAGACACTGTGGATGGGTTGTAGTTCTGCACGTAGAAGCAAAAGGC [T44G A56T] ?
0.809
